Biological target: Endothelial lipase (EL) (Homo sapiens (Human), UniProt Q9Y5X9)
Sequence (Q9Y5X9 21-500): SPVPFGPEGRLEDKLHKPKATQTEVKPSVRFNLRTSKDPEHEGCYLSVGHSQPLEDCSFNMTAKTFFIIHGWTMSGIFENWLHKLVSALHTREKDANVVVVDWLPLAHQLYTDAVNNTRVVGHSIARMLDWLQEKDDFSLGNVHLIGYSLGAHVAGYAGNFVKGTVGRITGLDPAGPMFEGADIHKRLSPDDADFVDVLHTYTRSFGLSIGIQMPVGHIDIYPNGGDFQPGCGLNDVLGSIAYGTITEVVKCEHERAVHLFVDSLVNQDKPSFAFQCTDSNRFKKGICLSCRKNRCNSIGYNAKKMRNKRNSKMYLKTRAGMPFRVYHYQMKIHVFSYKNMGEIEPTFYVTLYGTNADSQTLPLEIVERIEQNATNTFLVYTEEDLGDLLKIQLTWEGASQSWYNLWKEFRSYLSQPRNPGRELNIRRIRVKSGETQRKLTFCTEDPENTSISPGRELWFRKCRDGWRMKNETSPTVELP
Experiment: Endothelial lipase (EL) enzymatic assay with fluorescent substrate A10070 in DMPG vesicles
Type: biochemical
Property: IC50; scope: individual molecules
recorded-metric: IC50 (nM)

CS(=O)(=O)C(C(=O)NCC(=O)NC1CC1)c1nc2cc(F)c(-c3cnc(C4CC4)nc3)cc2s1 (stereo not shown): 25
COc1cc(-c2cc3nc(C(C(=O)NCC(=O)NC4CC4)S(C)(=O)=O)sc3cc2F)ccn1 (stereo not shown): 12
COCCS(=O)(=O)C(C(=O)NCC(=O)NC1CC1)c1nc2ccc(-c3ccnc(C(F)(F)F)c3)cc2s1 (stereo not shown): 23
COCCS(=O)(=O)C(C(=O)NCC(=O)NC1CC1)c1nc2cc(-c3cnnc(C)c3)c(F)cc2s1 (stereo not shown): 36
CC(C)S(=O)(=O)C(C(=O)NCC(=O)NC1CC1)c1nc2cc(F)c(-c3ccc(NC(=O)CCc4ccccc4)cc3)cc2s1 (stereo not shown): 4
COCCS(=O)(=O)C(C(=O)NCC(=O)NC1CC1)c1nc2cc(F)c(-c3ccc(-n4ncc(C(N)=O)c4N)cc3)cc2s1 (stereo not shown): 1
CC(=O)Nc1ccc(-c2ccc3nc(C(C(=O)NCC(=O)NC4CC4)S(C)(=O)=O)sc3c2)cc1 (stereo not shown): 14

* * *

Target: UniProt Q9Y5X9
Assay: Endothelial lipase (EL) enzymatic assay with fluorescent substrate A10070 in DMPG vesicles
Format: biochemical
Please assign a class to every record based on measured IC50, with ranges bucket A = under 8 nM, bucket B = from 8 nM up to 20 nM, bucket C = 20 nM and over

COc1ccc(-c2ccc3nc(C(C(=O)NCC(=O)NC4CC4)S(=O)(=O)c4ccc(F)cc4)sc3c2)cn1 (stereo not shown): bucket C
O=C1Cc2ccc(-c3ccc4nc(C(C(=O)NCC(=O)NC5CC5)S(=O)(=O)c5ccc(F)cc5)sc4c3)cc2N1 (stereo not shown): bucket C
CC(C)S(=O)(=O)C(C(=O)NCC(=O)NC1CC1)c1nc2cc(C(F)(F)F)c(-c3ccccc3)cc2s1 (stereo not shown): bucket C
COCCS(=O)(=O)C(C(=O)NCC(=O)NC1CC1)c1nc2ccc(-c3cccc(Cl)n3)cc2s1 (stereo not shown): bucket C
COC(=O)Nc1ccc(-c2cc3sc(C(C(=O)NCC(=O)NC4CC4)S(C)(=O)=O)nc3cc2F)cc1 (stereo not shown): bucket A
COCCS(=O)(=O)C(C(=O)NCC(=O)NC1CC1)c1nc2cc(-c3cnc(C)nc3)c(F)cc2s1 (stereo not shown): bucket A
COCCS(=O)(=O)C(C(=O)NCC(=O)NC1CC1)c1nc2cc(-c3ccc4c(c3)C(=O)NC4)c(F)cc2s1 (stereo not shown): bucket B
CC(C)S(=O)(=O)C(C(=O)NCC(=O)NC1CC1)c1nc2cc(F)c(-c3ccc4c(=O)n(C)ccc4c3)cc2s1 (stereo not shown): bucket A
CC(C)S(=O)(=O)C(C(=O)NCC(=O)NC1CC1)c1nc2cc(F)c(-c3ccc(C4CC4)nc3)cc2s1 (stereo not shown): bucket B
CS(=O)(=O)C(C(=O)NCC(=O)NC1CC1)c1nc2c(Cl)cc(-c3ccc(F)nc3)cc2s1 (stereo not shown): bucket B
CC(C)c1cc(CNC(=O)c2ccc3sc(C(C(=O)NCC(=O)NC4CC4)S(=O)(=O)Cc4ccc(F)cc4)nc3c2)on1 (stereo not shown): bucket C
CN(C)S(=O)(=O)C(C(=O)NCC(=O)NC1CC1)c1nc2c(F)cc(-c3ccc(-c4ccccc4)nc3)cc2s1 (stereo not shown): bucket A
Cc1nn(-c2ccc(-c3cc4sc(C(C(=O)NCC(=O)NC5CC5)S(=O)(=O)CCC(F)(F)F)nc4cc3F)cc2)c(N)c1C#N (stereo not shown): bucket A
CC(C)(O)Cn1cc(-c2ccc3nc(C(C(=O)NCC(=O)NC4CC4)S(C)(=O)=O)sc3c2)cn1 (stereo not shown): bucket B
Cc1ncc(-c2cc3sc(C(C(=O)NCC(=O)NC4CC4)S(C)(=O)=O)nc3cc2F)cn1 (stereo not shown): bucket C
COCCS(=O)(=O)C(C(=O)NCC(=O)NC1CC1)c1nc2ccc(-c3cccc(N(C)C(=O)OC)c3)cc2s1 (stereo not shown): bucket B
O=C(CNC(=O)C(c1nc2cc(F)c(-c3ccc(-n4ccccc4=O)cc3)cc2s1)S(=O)(=O)c1ccc(F)cc1)NC1CC1 (stereo not shown): bucket B
CS(=O)(=O)C(C(=O)NCC(=O)NC1CC1)c1nc2cc(F)c(-c3cccc4c3CC(=O)N4)cc2s1 (stereo not shown): bucket A
COCCS(=O)(=O)C(C(=O)NCC(=O)NC1CC1)c1nc2cc(F)c(-c3ccnn3C)cc2s1 (stereo not shown): bucket C
CS(=O)(=O)C(C(=O)NCC(=O)NC1CC1)c1nc2cc(F)c(-c3ccc(NC(N)=O)cc3)cc2s1 (stereo not shown): bucket A
COC(=O)Nc1ccc(-c2cc(Cl)c3nc(C(C(=O)NCC(=O)NC4CC4)S(C)(=O)=O)sc3c2)cc1 (stereo not shown): bucket A
COCCS(=O)(=O)C(C(=O)NCC(=O)NC1CC1)c1nc2ccc(-c3ccc(F)cc3)cc2s1 (stereo not shown): bucket B
O=C(CNC(=O)C(c1nc2c(F)cc(-c3ccc4c(c3)C(=O)NC4)cc2s1)S(=O)(=O)c1ccc(F)cc1)NC1CC1 (stereo not shown): bucket C
CC(=O)Nc1cccc(-c2ccc3nc(C(C(=O)NCC(=O)NC4CC4)S(C)(=O)=O)sc3c2)c1 (stereo not shown): bucket C
COCCS(=O)(=O)C(C(=O)NCC(=O)NC1CC1)c1nc2cc(-c3cccnc3C)ccc2s1 (stereo not shown): bucket B
COCC(C)(C)NC(=O)c1ccc(-c2ccc3nc(C(C(=O)NCC(=O)NC4CC4)S(C)(=O)=O)sc3c2)cc1 (stereo not shown): bucket A
